- Test system: Pseudomonas aeruginosa
- test: Antibacterial activity against multidrug-resistant Pseudomonas aeruginosa B 63230 assessed as growth inhibition by broth microdilution method
- Format: functional
Recorded MIC values for a group of compounds are listed next.

compound	testTarget	MIC
O=C(O)CNc1ccccc1C(=O)O	Pseudomonas aeruginosa	> 64 µg/mL
C[C@@H](O)C[C@@H](O)Cc1cc2cc(O)cc(O)c2c(=O)o1	Pseudomonas aeruginosa	> 64 µg/mL
CN[C@H](CC(C)C)C(=O)N[C@H]1C(=O)N[C@@H](CC(N)=O)C(=O)N[C@H]2C(=O)N[C@H]3C(=O)N[C@H](C(=O)N[C@H](C(=O)O)c4cc(O)cc(O)c4-c4cc3ccc4O)[C@H](O)c3ccc(c(Cl)c3)Oc3cc2cc(c3O[C@@H]2O[C@H](CO)[C@@H](O)[C@H](O)[C@H]2O[C@H]2C[C@](C)(N)[C@H](O)[C@H](C)O2)Oc2ccc(cc2Cl)[C@H]1O	Pseudomonas aeruginosa	> 64 µg/mL
COC(=O)c1oc(=O)c2c(O)c3c(=O)cc(C)oc3cc2c1O	Pseudomonas aeruginosa	> 64 µg/mL
CC(C)[C@H]1C(=O)O[C@H](C(C)C)C(=O)N(C)[C@@H](C(C)C)C(=O)O[C@H](C(C)C)C(=O)N(C)[C@@H](C(C)C)C(=O)O[C@H](C(C)C)C(=O)N1C	Pseudomonas aeruginosa	> 64 µg/mL
C=C1NC(=O)C(C)C(CCC(C)C(=O)/C=C/C(C)=C/CCC(C)CCCCCC)OC(=O)C(CCC(N)=O)NC(=O)C(C)CNC1=O (stereo unspecified)	Pseudomonas aeruginosa	> 64 µg/mL
CN(C)[C@@H]1C(O)=C(C(N)=O)C(=O)[C@@]2(O)C(O)=C3C(=O)c4c(O)cccc4[C@@](C)(O)[C@H]3C[C@@H]12	Pseudomonas aeruginosa	32 µg/mL
O=C(O)c1cn(C2CC2)c2cc(N3CCNCC3)c(F)cc2c1=O	Pseudomonas aeruginosa	16 µg/mL
CC(=O)C[C@@H](O)Cc1cc2cc(O)cc(O)c2c(=O)o1	Pseudomonas aeruginosa	> 64 µg/mL
Cc1cc(=O)cc(Cc2cc(O)cc(O)c2)o1	Pseudomonas aeruginosa	> 64 µg/mL
CC[C@H](C)[C@H]1C(=O)O[C@H](C(C)C)C(=O)N(C)[C@@H](C(C)C)C(=O)O[C@H](C(C)C)C(=O)N(C)[C@@H](C(C)C)C(=O)O[C@H](C(C)C)C(=O)N1C	Pseudomonas aeruginosa	> 64 µg/mL

Value source: ChEMBL document CHEMBL3085737
